Source: patent US8765755B2

IC50 values recorded for human JAK3 (Homo sapiens)

Would you please look over these solved cases?
>  <SMILES_INPUT>
C=CC(=O)Nc1cccc(-c2csc3cnc(Nc4ccc(N5CCOCC5)cc4)nc23)c1

>  <IC50>
< 100 nM

$$$$
>  <SMILES_INPUT>
CS(=O)(=O)NCc1cccc(-c2csc3cnc(Nc4ccc(OCCN5CCCC5)cc4)nc23)c1

>  <IC50>
< 100 nM

$$$$
>  <SMILES_INPUT>
c1cc(-c2csc3cnc(Nc4ccc(CN5CCOCC5)cc4)nc23)cc(N2CCNCC2)c1

>  <IC50>
< 100 nM

$$$$
>  <SMILES_INPUT>
CCc1ccccc1-c1csc2cnc(Nc3ccc(N4CCOCC4)cc3)nc12

>  <IC50>
< 100 nM

$$$$
>  <SMILES_INPUT>
Cn1cc(-c2ccc(S(N)(=O)=O)cc2)c2nc(Nc3ccc(N4CCOCC4)cc3)ncc21

>  <IC50>
< 500 nM

$$$$

Hey, quick one: what's IC50 for each of these?
1. CC(C)(C)OC(=O)NCc1cccc(-c2csc3cnc(Nc4ccc(CN5CCOCC5)cc4)nc23)c1
2. Cn1cc(-c2ccc(NS(C)(=O)=O)cc2)c2nc(Nc3ccc(N4CCOCC4)cc3)ncc21
3. CC(C)(C)NS(=O)(=O)c1cccc(-c2csc3cnc(Nc4ccc(OCCN5CCCC5)cc4)nc23)c1

1. < 500 nM
2. < 1000 nM
3. < 100 nM

====

- SYSTEM: UniProt:P52333
Could you please report measured IC50 for the items listed next?

For every listed record, write down its IC50.
1. c1cc(Nc2ncc3scc(-c4ccc5c(c4)OCO5)c3n2)ccc1CN1CCOCC1 [Compound 76]
2. NS(=O)(=O)c1ccc(-c2csc3cnc(Nc4ccc(N5CCOCC5)cc4)nc23)cc1 [Compound 11]
3. CC(C)c1ccccc1-c1csc2cnc(Nc3ccc(OCCN4CCCC4)cc3)nc12 [Compound 96]
4. CC(C)c1ccccc1-c1csc2cnc(Nc3ccc(N4CCOCC4)cc3)nc12 [Compound 37]

["< 500 nM", "< 100 nM", "< 100 nM", "< 100 nM"]

====

Kindly state IC50 for each of the entries shown.
- SYSTEM: human JAK3 (Homo sapiens, UniProt P52333)
- Sequence (P52333 822-1111 limits assumed): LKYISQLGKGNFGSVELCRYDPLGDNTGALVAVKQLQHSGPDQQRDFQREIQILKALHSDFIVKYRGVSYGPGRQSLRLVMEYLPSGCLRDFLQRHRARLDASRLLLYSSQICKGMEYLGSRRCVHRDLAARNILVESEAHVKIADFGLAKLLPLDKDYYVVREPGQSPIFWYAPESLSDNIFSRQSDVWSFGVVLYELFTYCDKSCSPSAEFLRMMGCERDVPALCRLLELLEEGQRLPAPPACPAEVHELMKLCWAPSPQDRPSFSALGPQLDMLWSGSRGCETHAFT

Please review the entries below; each comes with its answer.
>  <SMILES_INPUT>
CC(C)(C)OC(=O)NCc1cccc(-c2csc3cnc(Nc4ccc(OCCN5CCCC5)cc4)nc23)c1

>  <RESULT_VALUE>
< 100 nM

$$$$
>  <SMILES_INPUT>
Nc1cccc(-c2csc3cnc(Nc4ccc(N5CCOCC5)cc4)nc23)c1

>  <RESULT_VALUE>
< 100 nM

$$$$
>  <SMILES_INPUT>
CCN1CCN(Cc2ccc(Nc3ncc4scc(-c5cccc(S(=O)(=O)NC(C)(C)C)c5)c4n3)cc2)CC1

>  <RESULT_VALUE>
< 500 nM

$$$$
>  <SMILES_INPUT>
N#CCNC(=O)c1cccc(-c2csc3cnc(Nc4ccc(N5CCOCC5)cc4)nc23)c1

>  <RESULT_VALUE>
< 100 nM

$$$$
>  <SMILES_INPUT>
CCc1ccccc1-c1csc2cnc(Nc3cccc(N)c3)nc12

>  <RESULT_VALUE>
< 100 nM

$$$$
>  <SMILES_INPUT>
CC(C)(C)OC(=O)N1CC=C(c2csc3cnc(Nc4ccc(CN5CCOCC5)cc4)nc23)CC1

>  <RESULT_VALUE>
< 100 nM

$$$$

Please give IC50, item by item, for the list that follows.
1. CC(C)(C)NS(=O)(=O)c1cccc(-c2csc3cnc(Nc4cccc(N5CCOCC5)c4)nc23)c1
2. N#CCNC(=O)c1cccc(-c2csc3cnc(Nc4ccc(CN5CCOCC5)cc4)nc23)c1
3. NCc1ccc(-c2csc3cnc(Nc4ccc(CN5CCOCC5)cc4)nc23)cc1

< 500 nM
< 100 nM
< 100 nM
